tested on: microtubules / purified porcine brain tubulin (porcine)
assay notes: ELISA
value kind: pKd
Answers are plain numbers, as −log10 of the molar value.

// worked examples, pKd included
GST-PEX14-NTD K54A (domain or fragment) MASSEQAEQPSQPSSTPGSENVLPREPLIATAVKFLQNSRVRQSPLATRRAFLAKKGLTDEEIDMAFQQSGTAADEPS; 8.41
GST-PEX14-NTD F52A (domain or fragment) TPGSENVLPREPLIATAVKFLQNSRVRQSPLATRRAALKKKGLTDEEIDMAFQQSGTAADEPSSL; 7.41
GST-PEX14-NTD K56A (domain or fragment) MASSEQAEQPSQPSSTPGSENVLPREPLIATAVKFLQNSRVRQSPLATRRAFLKKAGLTDEEIDMAFQQSGTAADEPS; 7.90

Continue with the next binder.
Problem: For the binder shown here, GST-PEX14-NTD F52A/K56A (domain or fragment) MASSEQAEQPSQPSSTPGSENVLPREPLIATAVKFLQNSRVRQSPLATRRAALKKAGLTDEEIDMAFQQSGTAADEPS , give the reported pKd.
Solution: 7.05
